- Test system: Vero E6 infected with SARS-CoV-2
- test: SARS-CoV-2 infection rate relative to infected DMSO; higher = more infection, active = 60 or less
- condition.summary: 24 h
In this section we review reported SARS-CoV-2 infection rate values for a set of compounds.
Numbers only here, please. The scale is %.

Worked examples follow.
{"columns": ["compound", "SARS-CoV-2 infection rate [%]"],
 "data": [
  ["COC(=O)C1=CO[C@@H](O)[C@@H]2C(CO)=CC[C@H]12 [genipin] (10 µM)", 112],
  ["COC(=O)[C@@]12OC[C@]34[C@H]([C@@H](O)[C@@H]1O)[C@@]1(C)CC(=O)C(O)=C(C)[C@@H]1C[C@H]3OC(=O)[C@H](OC(=O)/C=C(\\C)C(C)C)[C@@H]24 [bruceantin] (0.833333 µM)", 109],
  ["CCCOc1ccc(S(=O)(=O)N2CCN(CCO)CC2)cc1-c1nc2c(CCC)cn(CC)c2c(=O)[nH]1 [mirodenafil] (10 µM)", 95.5],
  ["CCOC(=O)[C@@](C)(N)Cc1ccc(O)c(O)c1 [methyldopate] (10 µM)", 108],
  ["Cn1ccc2cc(NC(=O)Nc3cccnc3)ccc21 (10 µM)", 117]
]}

Reported SARS-CoV-2 infection rate for OCCN1CCN(CC/C=C2/c3ccccc3Sc3ccc(C(F)(F)F)cc32)CC1 [flupentixol] (10 µM) was 79

Measured SARS-CoV-2 infection rate of O=C(NCCCN1CCCCCC1)C(c1ccccc1)C1CCCCC1 (stereo not drawn) (10 µM) : 75.5

For O=C1CCC[C@@H]2[C@H]3CCC[N+]4([O-])CCC[C@@H](CN12)[C@@H]34 (stereo partly drawn) [oxymatrine] (10 µM) the compound record lists SARS-CoV-2 infection rate as 100

Sourced from the supplement of paper PMC13380429
